Biological target: Adenosine receptor A2a (Homo sapiens)
Sequence (P29274 whole entry): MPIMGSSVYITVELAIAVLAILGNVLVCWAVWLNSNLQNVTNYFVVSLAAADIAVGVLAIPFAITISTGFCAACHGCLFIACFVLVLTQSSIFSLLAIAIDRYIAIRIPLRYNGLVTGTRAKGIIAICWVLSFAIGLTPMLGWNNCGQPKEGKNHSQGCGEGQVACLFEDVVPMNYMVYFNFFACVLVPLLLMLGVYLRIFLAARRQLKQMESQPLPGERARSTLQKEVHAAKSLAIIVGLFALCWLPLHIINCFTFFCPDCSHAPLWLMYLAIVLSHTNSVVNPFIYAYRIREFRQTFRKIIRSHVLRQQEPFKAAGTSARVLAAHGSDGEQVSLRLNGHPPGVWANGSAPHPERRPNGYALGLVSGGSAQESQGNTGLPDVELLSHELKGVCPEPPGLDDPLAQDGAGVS
Test: Displacement of [3H]ZM241385 from human adenosine A2A receptor expressed in HEK293 cell membranes measured after 90 mins
pKi: −log10 of the molar value.
READOUT NAME: pKi

| COMPOUND | READOUT NAME | MEAS VALUE |
| --- | --- | --- |
| COc1ccc(N2CCOCC2)c2sc(NC(=O)C(C)(C)Oc3ccc(C#N)cc3)nc12 | pKi | 7.24 |
| COc1cnc(N2CCOCC2)c2sc(NC(=O)C(C)(C)Oc3ccc(C)cc3)nc12 | pKi | 7.26 |
| COc1ccc(N2CCOCC2)c2sc(NC(=O)C(C)(C)Oc3ccc(F)c(F)c3)nc12 | pKi | 8.19 |
| COc1ccc(N2CCOCC2)c2sc(NC(=O)C3(C)CCC(O)(C(C)C)CC3)nc12 (configuration not stated) | pKi | 7.77 |
| COc1ccc(N2CCOCC2)c2sc(NC(=O)C(C)(C)Oc3ccc(C(F)(F)F)cc3)nc12 | pKi | 7.12 |
| COc1cnc(N2CCOCC2)c2sc(NC(=O)C(C)(C)Oc3ccc(F)cc3)nc12 | pKi | 8.47 |
| COCCOc1cccc(OC(C)(C)C(=O)Nc2nc3c(OC)ccc(N4CCOCC4)c3s2)c1 | pKi | 7.66 |

Every entry's value here was drawn from ChEMBL document CHEMBL4002602.
